- Target System: Androgen Receptor (Homo sapiens)
- Construct: endogenous in cells; host or cells: VCaP cells
- Assay Name: Androgen Receptor ELISA assay (PathScan AR ELISA) in VCaP cells: AR degradation, Dmax and DC50
- Format: cell-based
- Test Context: VCaP, VCaP cells; Table 35; read-out: VCaP Dmax (%)
- Experimental: 1. Androgen Receptor ELISA Assay. The protocols used with VCaP cells are described below. The androgen receptor ELISA assay was performed using PathScan AR ELISA (Cell Signaling Catalog #12850) according to the following assay steps: […]
Outcome Measure: Dmax

Known results for molecules:
# Compound Smiles, Target System, Dmax
rows = [
    ("CC(C)(C)[C@H](NC(=O)COCCOc1ccc(-c2ccc(C(=O)N[C@H]3C(C)(C)[C@H](Oc4ccc(C#N)c(Cl)c4)C3(C)C)cc2)cc1)C(=O)N1C[C@H](O)C[C@H]1C(=O)NCc1ccc(Cl)cc1", "Androgen Receptor (Homo sapiens)", "51 to 70%"),
    ("Cc1ncsc1-c1ccc([C@H](C)NC(=O)[C@@H]2C[C@@H](O)CN2C(=O)[C@@H](NC(=O)COCCOc2ccc(-c3ccc(C(=O)N[C@H]4C(C)(C)[C@H](Oc5ccc(C#N)c(Cl)c5)C4(C)C)cc3)cc2)C(C)(C)C)cc1", "Androgen Receptor (Homo sapiens)", "> 71%"),
    ("CNC[C@@H](NC(=O)[C@@H]1C[C@@H](O)CN1C(=O)[C@@H](NC(=O)COCCCCCOc1ccc(C(=O)N[C@H]2C(C)(C)[C@H](Oc3ccc(C#N)c(Cl)c3)C2(C)C)cc1)C(C)(C)C)c1ccc(-c2scnc2C)cc1", "Androgen Receptor (Homo sapiens)", "26 to 50%"),
    ("Cc1nccn1-c1ccc([C@H](C)NC(=O)[C@@H]2C[C@@H](O)CN2C(=O)[C@@H](NC(=O)COCCOc2ccc(-c3ccc(C(=O)N[C@H]4C(C)(C)[C@H](Oc5ccc(C#N)c(Cl)c5)C4(C)C)cc3)cc2)C(C)(C)C)cc1", "Androgen Receptor (Homo sapiens)", "> 71%"),
    ("Cc1nccn1-c1ccc([C@H](C)NC(=O)[C@@H]2C[C@@H](O)CN2C(=O)[C@@H](NC(=O)CNC(=O)c2ccc(Oc3ccc(C(=O)N[C@H]4C(C)(C)[C@H](Oc5ccc(C#N)c(Cl)c5)C4(C)C)cc3)cc2)C(C)(C)C)cc1", "Androgen Receptor (Homo sapiens)", "> 71%"),
]

// below: Dmax requested for another molecule
*Q* Dmax lookup needed for COC(=O)[C@@H]1C[C@@H](O)CN1C(=O)[C@@H](NC(=O)COCCCCCOc1ccc(C(=O)N[C@H]2C(C)(C)[C@H](Oc3ccc(C#N)c(Cl)c3)C2(C)C)cc1)C(C)(C)C , thanks.
*A* 26 to 50%

###

- Target System: Androgen Receptor (Homo sapiens, UniProt P10275)
- Construct: endogenous in cells; host or cells: VCaP cells
- Sequence (P10275 whole entry): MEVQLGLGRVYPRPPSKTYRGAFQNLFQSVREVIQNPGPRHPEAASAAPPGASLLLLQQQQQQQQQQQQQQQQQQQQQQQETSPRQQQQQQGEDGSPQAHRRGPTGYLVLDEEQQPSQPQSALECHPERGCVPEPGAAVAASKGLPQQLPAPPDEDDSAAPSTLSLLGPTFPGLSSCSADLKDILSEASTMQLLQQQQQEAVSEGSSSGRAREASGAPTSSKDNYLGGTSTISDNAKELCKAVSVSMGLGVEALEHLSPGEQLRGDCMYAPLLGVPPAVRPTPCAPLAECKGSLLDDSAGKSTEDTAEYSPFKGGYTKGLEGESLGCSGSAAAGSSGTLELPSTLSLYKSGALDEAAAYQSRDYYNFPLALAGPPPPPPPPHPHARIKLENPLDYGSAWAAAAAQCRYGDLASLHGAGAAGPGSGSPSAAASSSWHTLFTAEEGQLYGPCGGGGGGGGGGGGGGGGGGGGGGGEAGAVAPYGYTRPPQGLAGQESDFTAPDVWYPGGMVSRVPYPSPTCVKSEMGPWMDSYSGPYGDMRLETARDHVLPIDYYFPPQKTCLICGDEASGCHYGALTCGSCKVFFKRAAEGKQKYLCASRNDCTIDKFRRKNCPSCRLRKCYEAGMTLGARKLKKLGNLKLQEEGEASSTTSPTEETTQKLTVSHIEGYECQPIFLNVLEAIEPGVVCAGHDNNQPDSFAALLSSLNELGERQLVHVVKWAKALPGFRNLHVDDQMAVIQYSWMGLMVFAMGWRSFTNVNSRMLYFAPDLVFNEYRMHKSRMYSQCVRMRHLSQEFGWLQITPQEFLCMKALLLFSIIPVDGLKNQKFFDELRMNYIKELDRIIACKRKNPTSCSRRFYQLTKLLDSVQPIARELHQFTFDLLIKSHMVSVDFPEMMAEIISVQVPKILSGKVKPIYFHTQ
- Assay Name: Androgen Receptor ELISA assay (PathScan AR ELISA) in VCaP cells: AR degradation, Dmax and DC50
- Type: cell-based
- Test Context: VCaP, read-out: VCaP Dmax (%), VCaP cells; Table 36
List of Dmax values.

Known results for molecules:
# Molecule, Dmax
rows = [
    ("Cc1ncsc1-c1ccc([C@H](C)NC(=O)[C@@H]2C[C@@H](O)CN2C(=O)[C@@H](NC(=O)CN2CCN(CCCc3ccc(C(=O)N[C@H]4C(C)(C)[C@H](Oc5ccc(C#N)c(C#N)c5)C4(C)C)cc3)CC2)C2COC2)cc1 [Example 746]", "< 25%"),
    ("Cc1ncsc1-c1ccc(CNC(=O)[C@@H]2C[C@@H](O)CN2C(=O)[C@H](C(C)C)N2Cc3ccc(N4CCN(CCCc5ccc(C(=O)N[C@H]6C(C)(C)[C@H](Oc7ccc(C#N)c(C(F)(F)F)c7)C6(C)C)cc5)CC4)cc3C2=O)cc1 [Example 762]", "< 25%"),
    ("Cc1ncsc1-c1ccc(C(C)NC(=O)C2CC(O)CN2C(=O)C(NC(=O)CN2CCOCCOCCN(c3ccc(C(=O)NC4C(C)(C)C(Oc5ccc(C#N)c(Cl)c5)C4(C)C)cc3)CCOCCOCC2)C(C)(C)C)cc1 (stereo not shown) [Example 694]", "51 to 70%"),
]

// below: Dmax requested for another molecule
*Q* Dmax lookup needed for Cc1ncsc1-c1ccc([C@H](C)NC(=O)[C@@H]2C[C@@H](O)CN2C(=O)[C@@H](C(C)C)n2cc(-c3ccnc(OC4CN(c5ncc(C(=O)NC6C(C)(C)C(Oc7ccc(C#N)c(Cl)c7)C6(C)C)cn5)C4)c3)cn2)cc1 (stereo partly shown) [Example 603] , thanks.
*A* < 25%
